- assay.overview: Liver triphosphate pharmacokinetics after single oral dose in CD-1 mice;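 further: pmol/g liver normalized to a 1 µmol/kg dose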
- Format: in vivo
- measurement.parameters: single oral dose 10 mg/kg in PEG 200
value.kind: Ms Liver TP Cmax

Reference set, count: 4
compound	Ms Liver TP Cmax
CC(C)(CO)C(=O)SCCOP(=O)(NCc1ccccc1)OC[C@H]1O[C@@H](n2ccc(=O)[nH]c2=O)[C@](C)(Cl)[C@@H]1O (single isomer, unassigned; diastereomer 2) [Compound 54 Diastereomer 2]	+ (+ ≤ 15)
CC(C)OC(=O)[C@H](C)NP1(=O)OC[C@H]2O[C@@H](n3cnc4c(N)ncnc43)[C@](C)(Cl)[C@@H]2O1 (single isomer, unassigned; diastereomer 2) [Compound 77ii Diastereomer 2]	++++ (100 < ++++)
CC(C)OC(=O)[C@H](C)NP1(=O)OC[C@H]2O[C@@H](n3ccc(=O)[nH]c3=O)[C@](C)(Cl)[C@@H]2O1 (single isomer, unassigned; diastereomer 1) [Compound 38ii Diastereomer 1]	+ (+ ≤ 15)
CCCCOC(=O)[C@H](C)NP(=O)(OC[C@H]1O[C@@H](n2ccc(=O)[nH]c2=O)[C@](C)(Cl)[C@@H]1O)Oc1ccccc1 (single isomer, unassigned; diastereomer 1) [Compound 202ii Diastereomer 1]	++++ (100 < ++++)

Now turn to the next compound.
For this compound ( CC(C)(C)C(=O)SCCOP1(=O)OC[C@H]2O[C@@H](n3ccc(N)nc3=O)[C@](C)(Cl)[C@@H]2O1 (single isomer, unassigned) [Compound 61 Diastereomer 2] ), measured Ms Liver TP Cmax is ++++ (100 < ++++)
